B1: ATXN2 peptide 911-926 (Ataxin-2), 16-mer library wild type / PABPC1 PABC (PABPC1 PABC domain, residues 544-623) (parent)
chain 1: KSTLNPNAKEFNPRSF
chain 2: PLTASMLASAPPQEQKQMLGERLFPLIQAMHPTLAGKITGMLLEIDNSELLHMLESPESLRSKVDEAVAVLQAHQAKEAA

# Variants of: B1
# PROTOCOL: proteomic peptide phage display deep mutational scan (ProP-PD DMS): M13 P8 16-mer library selected against immobilised GST-tagged bait for four days (rounds), NGS of the eluted pools per day and pseudo-replica
# TEST CONTEXT: with PABPC1 PABC (PABPC1 PABC domain, residues 544-623); bait immobilised on MaxiSorp plates (10 µg), library pre-cleared on GST, 2 h binding at 4 °C, five washes; one round per day, days 1-4; value from days 2 and 3; scale: average fractional NGS count over selection days 2 and 3
Lab note: cut-off is 0.0009. Strictly less in screen value is 1. Exactly 0.0009 or more is 0.

# VARIANT NOTATION, CLASS NAME
rows = [
    ("chain 1 S2A", 1),
    ("chain 1 P6V", 0),
    ("chain 1 L4M", 1),
    ("chain 1 S2E", 1),
    ("chain 1 S15H", 1),
    ("chain 1 P6H", 1),
    ("chain 1 T3Q", 1),
    ("chain 1 F16I", 1),
    ("chain 1 N7F", 1),
    ("chain 1 K9H", 0),
    ("chain 1 K9G", 1),
    ("chain 1 K9R", 0),
    ("chain 1 R14V", 1),
    ("chain 1 R14N", 1),
    ("chain 1 T3V", 0),
    ("chain 1 S2M", 0),
    ("chain 1 N7I", 0),
    ("chain 1 N7A", 1),
    ("chain 1 S2Y", 0),
    ("chain 1 A8S", 1),
    ("chain 1 R14T", 0),
]
